- Test system: U251 CNS
Thanks in advance; please answer with one of these: true (1) = active, false (0) = inactive

# example entries with known answers
Compound | Experimental System | Cat
COc1ccc(C2CC(c3ccc(OC)c(OC)c3)=NN2C(=O)c2cc(OC)c(OC)c(OC)c2)cc1 (stereo unspecified) | U251 CNS | false (0)
NCCN.O=N[O-].O=N[O-].O=N[O-].O=N[O-].[Co+3].[K+] | U251 CNS | false (0)

Query string: Please state the recorded outcome for this compound: CC(=O)OC1C(OC/C2=C/C3[C@@H](C(C)C)CC=C(C)[C@@H]3CC(OC(=O)/C=C/c3cn(C)cn3)[C@]3(C)C=C[C@@]2(O)O3)OCC(O)C1O (stereo partly specified)
Result string: true (1)

Query string: Please state the recorded outcome for this compound: CCOC(=O)C(Cc1ccc(N(CCCl)CCCl)cc1)NC(=O)C(CC(C)C)NC(C)=O (stereo unspecified)
Result string: false (0)

Query string: Please state the recorded outcome for this compound: COc1ccc(-c2nccn2-c2cc(OC)c(OC)c(OC)c2)cc1
Result string: false (0)

Query string: Please state the recorded outcome for this compound: N#Cc1ccccc1C#C/C=C\C#Cc1cnccn1
Result string: false (0)

FYI, the data here is from PubChem BioAssay (NCI).
